Hello, the source for this data is the supplement of paper PMC6555819, in case you need it.

system: PPARg:RXRa 30nM:10nM, anti-RXR (NR concentration 30 nM, RXRa partner concentration 10 nM); assay: PBM binding z-score (relative to random genomic background probes); higher = stronger binding; sequences stand for … in GC…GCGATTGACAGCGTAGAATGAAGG
ENDPOINT: PBM binding z-score
Format: numeric value only, no unit, no commentary.

# PRIMARY SEQUENCE, SYSTEM TESTED, PBM binding z-score
measured = [
    ("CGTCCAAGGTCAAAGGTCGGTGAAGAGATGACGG", "PPARg:RXRa 30nM:10nM, anti-RXR (NR concentration 30 nM, RXRa partner concentration 10 nM)", 6.65),
]

Incoming: Please state recorded PBM binding z-score (tested on PPARg:RXRa 30nM:10nM, anti-RXR (NR concentration 30 nM, RXRa partner concentration 10 nM)) of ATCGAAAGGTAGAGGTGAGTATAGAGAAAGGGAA
Outgoing: 0.813

Incoming: Please state recorded PBM binding z-score (tested on PPARg:RXRa 30nM:10nM, anti-RXR (NR concentration 30 nM, RXRa partner concentration 10 nM)) of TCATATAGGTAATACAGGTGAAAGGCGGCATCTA
Outgoing: 4.62

Incoming: Please state recorded PBM binding z-score (tested on PPARg:RXRa 30nM:10nM, anti-RXR (NR concentration 30 nM, RXRa partner concentration 10 nM)) of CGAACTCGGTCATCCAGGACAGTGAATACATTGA
Outgoing: 0.134

Incoming: Please state recorded PBM binding z-score (tested on PPARg:RXRa 30nM:10nM, anti-RXR (NR concentration 30 nM, RXRa partner concentration 10 nM)) of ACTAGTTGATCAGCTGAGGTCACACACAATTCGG
Outgoing: 0.574

====

tested on: FXR:RXRa (NR concentration 270 nM, RXRa partner concentration 90 nM); assay: PBM binding z-score (relative to random genomic background probes); higher = stronger binding; sequences stand for … in GC…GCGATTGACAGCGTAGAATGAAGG
Quick rule: PBM binding z-score of at least 0.4 means MET, below that means NOT MET.

Please review the following examples before continuing.
# PRIMARY SEQUENCE, CATEGORY
records = [
    ("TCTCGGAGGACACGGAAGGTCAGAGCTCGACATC", "MET"),
    ("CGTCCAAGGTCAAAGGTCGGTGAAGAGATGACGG", "MET"),
    ("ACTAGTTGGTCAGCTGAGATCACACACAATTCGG", "NOT MET"),
]

Incoming: For this sequence, is measured PBM binding z-score 0.4 or higher? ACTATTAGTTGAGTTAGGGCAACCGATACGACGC
Outgoing: NOT MET

Incoming: For this sequence, is measured PBM binding z-score 0.4 or higher? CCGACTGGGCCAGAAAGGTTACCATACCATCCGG
Outgoing: NOT MET

Incoming: For this sequence, is measured PBM binding z-score 0.4 or higher? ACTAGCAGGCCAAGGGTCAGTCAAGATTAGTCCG
Outgoing: MET

Incoming: For this sequence, is measured PBM binding z-score 0.4 or higher? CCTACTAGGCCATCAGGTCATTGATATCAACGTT
Outgoing: MET

Incoming: For this sequence, is measured PBM binding z-score 0.4 or higher? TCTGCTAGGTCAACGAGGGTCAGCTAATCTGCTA
Outgoing: MET

Incoming: For this sequence, is measured PBM binding z-score 0.4 or higher? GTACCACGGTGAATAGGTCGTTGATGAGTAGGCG
Outgoing: NOT MET

====

test system: VDR:RXRa (NR concentration 270 nM, RXRa partner concentration 90 nM); test: PBM binding z-score (relative to random genomic background probes); higher = stronger binding; sequences stand for … in GC…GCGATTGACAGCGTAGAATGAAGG
# PBM binding z-score values compiled below

# PRIMARY SEQUENCE, READING
data = [
    ("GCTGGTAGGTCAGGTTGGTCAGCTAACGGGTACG", 1.04),
    ("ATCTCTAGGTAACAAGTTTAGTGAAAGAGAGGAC", 0.823),
]

Incoming: Query: PBM binding z-score; subject: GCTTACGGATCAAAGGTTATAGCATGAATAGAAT
Outgoing: 1.52

Incoming: Query: PBM binding z-score; subject: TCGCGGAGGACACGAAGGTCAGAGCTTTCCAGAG
Outgoing: 2.1

Incoming: Query: PBM binding z-score; subject: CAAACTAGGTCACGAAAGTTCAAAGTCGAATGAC
Outgoing: 7.01

Incoming: Query: PBM binding z-score; subject: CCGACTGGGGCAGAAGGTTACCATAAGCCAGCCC
Outgoing: -0.302

Incoming: Query: PBM binding z-score; subject: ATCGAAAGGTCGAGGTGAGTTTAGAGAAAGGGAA
Outgoing: 4.92

====

tested on: PPARg:RXRa 30nM:10nM, anti-RXR (NR concentration 30 nM, RXRa partner concentration 10 nM); assay: PBM binding z-score (relative to random genomic background probes); higher = stronger binding; sequences stand for … in GC…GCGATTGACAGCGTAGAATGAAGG
# PBM binding z-score values compiled below
Format: numeric value only, no unit, no commentary.

Worked examples follow.
# PRIMARY SEQUENCE, SYSTEM TESTED, READING
measured = [
    ("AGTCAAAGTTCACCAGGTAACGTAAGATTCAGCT", "PPARg:RXRa 30nM:10nM, anti-RXR (NR concentration 30 nM, RXRa partner concentration 10 nM)", 3.83),
    ("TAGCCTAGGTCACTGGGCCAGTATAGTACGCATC", "PPARg:RXRa 30nM:10nM, anti-RXR (NR concentration 30 nM, RXRa partner concentration 10 nM)", 1.68),
    ("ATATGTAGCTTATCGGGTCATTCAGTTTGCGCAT", "PPARg:RXRa 30nM:10nM, anti-RXR (NR concentration 30 nM, RXRa partner concentration 10 nM)", 0.318),
    ("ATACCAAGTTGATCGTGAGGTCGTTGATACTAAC", "PPARg:RXRa 30nM:10nM, anti-RXR (NR concentration 30 nM, RXRa partner concentration 10 nM)", 0.0312),
    ("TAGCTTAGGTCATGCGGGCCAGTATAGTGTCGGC", "PPARg:RXRa 30nM:10nM, anti-RXR (NR concentration 30 nM, RXRa partner concentration 10 nM)", 0.0747),
]

Incoming: Query: PBM binding z-score; subject: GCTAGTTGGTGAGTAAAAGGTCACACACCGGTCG
Outgoing: 3.09

Incoming: Query: PBM binding z-score; subject: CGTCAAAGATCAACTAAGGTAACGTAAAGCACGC
Outgoing: 0.274

Incoming: Query: PBM binding z-score; subject: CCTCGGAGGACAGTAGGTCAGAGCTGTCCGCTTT
Outgoing: -0.726

Incoming: Query: PBM binding z-score; subject: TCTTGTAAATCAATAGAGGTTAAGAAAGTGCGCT
Outgoing: 3.77

Incoming: Query: PBM binding z-score; subject: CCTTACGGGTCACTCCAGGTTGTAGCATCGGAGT
Outgoing: 0.72

====

tested on: VDR homodimer (NR concentration 270 nM); test: PBM binding z-score (relative to random genomic background probes); higher = stronger binding; sequences stand for … in GC…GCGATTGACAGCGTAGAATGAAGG
ENDPOINT: PBM binding z-score
Format: numeric value only, no unit, no commentary.

# PRIMARY SEQUENCE, READING
measured = [
    ("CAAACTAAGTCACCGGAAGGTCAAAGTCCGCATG", 2.19),
    ("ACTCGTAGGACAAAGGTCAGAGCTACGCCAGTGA", 0.657),
]

Incoming: Query: PBM binding z-score; subject: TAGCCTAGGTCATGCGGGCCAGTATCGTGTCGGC
Outgoing: 0.528

====

tested on: RXRa DBDmut IVT, anti-RXR (DBD mutation: RXRa K156A/R161A, NR concentration 90 nM); assay: PBM binding z-score (relative to random genomic background probes); higher = stronger binding; sequences stand for … in GC…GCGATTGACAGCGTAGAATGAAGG
ENDPOINT: PBM binding z-score

# PRIMARY SEQUENCE, ENDPOINT, READING
data = [
    ("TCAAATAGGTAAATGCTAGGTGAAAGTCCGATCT", "PBM binding z-score", 1.84),
]

Incoming: Query: PBM binding z-score; subject: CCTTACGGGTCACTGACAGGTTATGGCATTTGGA
Outgoing: 1.85

Incoming: Query: PBM binding z-score; subject: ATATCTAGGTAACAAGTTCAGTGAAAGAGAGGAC
Outgoing: 1.36

Incoming: Query: PBM binding z-score; subject: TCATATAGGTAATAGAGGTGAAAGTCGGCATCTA
Outgoing: 2.14

Incoming: Query: PBM binding z-score; subject: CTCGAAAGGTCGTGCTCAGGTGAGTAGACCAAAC
Outgoing: 1.79
